The reported numbers originate from PubChem BioAssay (NCI).

tested on: K-562 leukemia; test: NCI tumour cell line growth inhibition, 48 h; in the data active means GI50 below about 0.43 µM; inactive means the rest
Assign a class; possible classes are active, inactive

Identify the outcome logged in this assay for the molecule shown: c1cc(CNC23CC4CC(CC(C4)C2)C3)cc(C[N+](Cc2cccc(CNC34CC5CC(CC(C5)C3)C4)c2)(Cc2cccc(CNC34CC5CC(CC(C5)C3)C4)c2)Cc2cccc(CNC34CC5CC(CC(C5)C3)C4)c2)c1 (stereo not given)
inactive

Given Cc1cccc(N2CCN(C(=S)c3ccc4c(c3)OCO4)CC2)c1 , state the outcome it received in this test.
inactive

// return assay outcome for CCC[CH2][Sn]1([CH2]CCC)[O]CC(CN2CCCC2)[O]1 (stereo not given)
inactive

Given CN1C/C=C\CCOc2cccc(c2)-c2ccnc(n2)Nc2cccc(c2)C1 , state the outcome it received in this test.
active

Lab log entry: COC(=O)C1=CNC=C(C(=O)OC)C1C1=CC(=O)C(C)=CC1=O — outcome as called in the assay?
inactive

====

test system: OVCAR-8 ovarian; experiment: NCI tumour cell line growth inhibition, 48 h
Provide the reported TGI of each item.

Please report the measured TGI for C1=CC2SSSC2C1 (stereo not drawn)
> 100 µM

Read the entry O=C1C2C3C=C4c5ccccc5N(c5ccccc5)C4(C2C(=O)N1Cc1ccccc1)C1C(=O)N(Cc2ccccc2)C(=O)C31 (stereo not drawn) and write its reported TGI.
> 100 µM

Assign TGI to the following record: CS/C(N)=N\NC(=O)CCC(=O)Nc1ccccc1C(F)(F)F
> 100 µM

Give the reported value of TGI for this record: Cc1cc(C(=O)Nc2ncc(Cc3cccc(C(F)(F)F)c3)s2)c2ccccc2n1
> 100 µM

Tell me measured TGI for O=S(=O)(N=S(c1ccccc1)c1ccccc1)c1ccccc1 please.
> 100 µM

Please indicate TGI recorded for CCOCc1nc2c(OC)cc(-c3nc4ccc(N5CCN(C)CC5)cc4[nH]3)c(OC)c2[nH]1
> 100 µM

Using known records, supply TGI for COc1ccc(/C=C/c2ccnc3ccccc23)c(OC)c1
> 10 µM

Tell me TGI reported for O=C1OC(C(O)CO)C(=O)C1=O (stereo not drawn)
> 10000 µM

Give TGI for COc1ccccc1/C=C1\SC(=S)N(/C=C2\C(=O)Oc3ccccc3C2=O)C1=O
> 100 µM

Indicate its recorded TGI; the compound in question is Clc1nc(Cl)c(Cl)c(-c2ccccc2)n1
> 100 µM

Return TGI (reported value) for this compound: Nn1c(=O)n(Cc2ccccc2)n(-c2ccccc2)c1=O
> 100 µM

Report TGI, nothing else, for this compound: Cc1cccc(NC(=O)/C(=N\NC(C)(C)C)C2NC(=S)NC2=O)c1C (stereo not drawn)
> 100 µM

Kindly indicate its recorded TGI. Item: COc1cc(/C=C2/C[C@H]3[C@@H]4CC=C5C[C@@H](O)CC[C@]5(C)[C@H]4CC[C@]3(C)NC2=O)cc(OC)c1OC
> 70.8 µM

Indicate the recorded TGI value for this compound: OCC(O)COCn1nncc1Cn1ncc2c(SCc3ccccc3)ncnc21 (stereo not drawn)
> 100 µM

Give a short answer stating reported TGI for CN(C)C(=O)c1cc2cnc(Nc3ccc(-c4csc5c(=S)cc(N6CCOCC6)oc45)cc3)nc2n1C1CCCC1 .
> 50 µM

Report measured TGI; entry is O=C1CCC(c2ccc(Cl)cc2)=NN1c1nsc2ccccc12
> 100 µM

Indicate its recorded TGI; the compound in question is O=P(Nc1ccc(Cl)cc1)(Oc1ccccc1)N(CCCl)CCCl (stereo not drawn)
> 100 µM

Identify TGI associated with the compound O=C1CSC(c2cccc(Oc3ccccc3)c2)N1c1ccc(Cl)cc1 (stereo not drawn)
> 100 µM

Specify measured TGI for NC(Cc1ccccc1)C(=O)N[C@H]1c2ccsc2/C(=N/O)[C@H]1O (stereo partly drawn) .
> 100 µM

Retrieve TGI measured for O=c1cc(-c2ccc(F)cc2)[nH]c2ncc(Cl)cc12 and print it.
> 100 µM

Quote TGI reported for CCCCN1C(=O)N(c2ccc(OCC)cc2)C2N(CCCC)C1C(C)(C)C2(C)C (stereo not drawn) please.
> 100 µM

Item COc1cc(Cn2c3c(c4cc(O)ccc42)Cc2ccccc2C3=O)cc(OC)c1 : provide TGI
> 100 µM

Please report TGI for the following compound: Oc1ccccc1C(Sc1nc2ccccc2s1)Sc1nc2ccccc2s1
> 100 µM
